Kindly supply the reported protein stability index values for the records listed here.
System: Saccharomyces cerevisiae
PROCEDURE_SUMMARY: protein stability index of tFT-peptide fusion (C-terminal peptide) (PSI (0-1 scale)); higher = more stable (slower turnover);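 further: PSI is a weighted mean of sequencing reads over stability bins, variants kept only with over 10 reads, mCherry proximal and sfGFP distal, peptide attached via GGGS linker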
EXPERIMENTAL_SETUP: genetic background: doa10 deletion; temperature: 30 C
Answers are plain numbers.

Example entries and their recorded answers appear below.
INPUT_SEQUENCE: GCVTFVLISFCA
ASSAYED_TARGET: Saccharomyces cerevisiae
protein stability index: 0.186

INPUT_SEQUENCE: RFFFSSFPLLIS
ASSAYED_TARGET: Saccharomyces cerevisiae
protein stability index: 0.207

I would be grateful if you could provide protein stability index for each of the following entries.
1. RDGAHFLLILVC
2. FIGVLVFSWLLF
3. SGFLRFRGLVCY
4. RYRVRIVVFGLV

stdout:
0.088
0.215
0.233
0.075

I would be grateful if you could provide protein stability index for each of the following entries.
1. VWSSSYVPLGVY
2. FSLGGVPYVFFV
3. GGVCVRMECWMG
4. NYVVFVRGIKIT
5. FGVLGCAWVWVG

stdout:
0.231
0.195
0.485
0.104
0.0888

I would be grateful if you could provide protein stability index for each of the following entries.
1. WRVFRPSLRLFA
2. LLRLCGFPLGVG
3. FLSRLVGFYFVV
4. LQCVYFVFFICF
5. VFMSVAPVSVLG

stdout:
1: 0.287; 2: 0.41; 3: 0.313; 4: 0.235; 5: 0.154

###

Tested on: Saccharomyces cerevisiae
PROCEDURE_SUMMARY: protein stability index of tFT-peptide fusion (C-terminal peptide) (PSI (0-1 scale)); higher = more stable (slower turnover)
EXPERIMENTAL_SETUP: genetic background: wild type; temperature: 30 C
READOUT_TYPE: protein stability index
Numbers only.

Example entries and their recorded answers appear below.
INPUT_SEQUENCE: PPPLLSHPFLPP
ASSAYED_TARGET: Saccharomyces cerevisiae
protein stability index: 0.69

INPUT_SEQUENCE: WVFMVILLVFLV
ASSAYED_TARGET: Saccharomyces cerevisiae
protein stability index: 0.304

INPUT_SEQUENCE: GYNTSMHVQYQT
ASSAYED_TARGET: Saccharomyces cerevisiae
protein stability index: 0.764

INPUT_SEQUENCE: DLVQFATEILMI
ASSAYED_TARGET: Saccharomyces cerevisiae
protein stability index: 0.612

INPUT_SEQUENCE: LPVSPDTLSPPL
ASSAYED_TARGET: Saccharomyces cerevisiae
protein stability index: 0.678

INPUT_SEQUENCE: MGDFGFIFVFFL
ASSAYED_TARGET: Saccharomyces cerevisiae
protein stability index: 0.502

INPUT_SEQUENCE: CVSALVADDLVS
ASSAYED_TARGET: Saccharomyces cerevisiae
protein stability index: 0.674

INPUT_SEQUENCE: PPRSFLPPRFSW
ASSAYED_TARGET: Saccharomyces cerevisiae
protein stability index: 0.702

INPUT_SEQUENCE: IADLGDLTKVTL
ASSAYED_TARGET: Saccharomyces cerevisiae
protein stability index: 0.693

INPUT_SEQUENCE: SGRATSSRTSEP
ASSAYED_TARGET: Saccharomyces cerevisiae
protein stability index: 0.78

I would be grateful if you could provide protein stability index for each of the following entries.
1. IGGDLGRDSTCL
2. LESYGLRDSTSG

stdout:
1: 0.592; 2: 0.621

I would be grateful if you could provide protein stability index for each of the following entries.
1. AVTAFDMGGSRN
2. LFFFPPVPISSV
3. RLVMAVRVAAGG

stdout:
1. 0.672
2. 0.601
3. 0.451

I would be grateful if you could provide protein stability index for each of the following entries.
1. LRLHPSPPVPSR
2. ARTSPRSPTFPP

stdout:
[0.7, 0.69]

I would be grateful if you could provide protein stability index for each of the following entries.
1. ESLMYGYWGFAR
2. RGSIKSYNTRKT
3. SFVFRLGEVGSS
4. KRKKNTRENGED
5. RFFFSSFPLLIS
6. PPPPQPTAPPNP

stdout:
[0.727, 0.728, 0.603, 0.778, 0.282, 0.717]
